Reported fold change of affinity values for the following binders.
assayed_system: T1, Human CD137 ECD (human)
T1 construct: entry includes C-terminal His-tag and biotin acceptor peptide; also called human CD137 extracellular domain; 4-1BB
T1 sequence (chain, as listed by the source limits assumed): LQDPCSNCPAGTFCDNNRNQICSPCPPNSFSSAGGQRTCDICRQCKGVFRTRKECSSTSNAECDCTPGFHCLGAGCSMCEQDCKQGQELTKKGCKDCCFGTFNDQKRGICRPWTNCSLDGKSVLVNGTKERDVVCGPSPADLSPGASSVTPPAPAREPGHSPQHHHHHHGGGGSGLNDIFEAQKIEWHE
experimental_details: Biacore SPR, vs parent H183/L072
assay_metric: fold change of affinity (fold)

[
  {
    "binder": "H183/L072 VL P95A (antibody, name in Kabat numbering, V domains shown, Dual-Ig) VH: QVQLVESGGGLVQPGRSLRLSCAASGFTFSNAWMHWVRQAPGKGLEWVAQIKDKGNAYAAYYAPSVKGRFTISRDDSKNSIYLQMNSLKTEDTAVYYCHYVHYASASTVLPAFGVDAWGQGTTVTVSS VL: DIVMTQSPLSLPVTPGEPASISCQASQELVHMNRNTYLHWYQQKPGQAPRLLIYKVSNRFPGVPDRFSGSGSGTDFTLKISRVEAEDVGVYYCAQGTSVAFTFGQGTKLEIK",
    "assay_metric": "fold change of affinity",
    "unit_descriptor": "fold",
    "recorded_result": 0
  },
  {
    "binder": "H183/L072 VL P56M (antibody, name in Kabat numbering, V domains shown, Dual-Ig) VH: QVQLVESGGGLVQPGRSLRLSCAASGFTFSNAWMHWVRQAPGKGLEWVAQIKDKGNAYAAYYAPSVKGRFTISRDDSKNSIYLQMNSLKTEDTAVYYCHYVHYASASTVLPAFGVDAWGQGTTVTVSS VL: DIVMTQSPLSLPVTPGEPASISCQASQELVHMNRNTYLHWYQQKPGQAPRLLIYKVSNRFMGVPDRFSGSGSGTDFTLKISRVEAEDVGVYYCAQGTSVPFTFGQGTKLEIK",
    "assay_metric": "fold change of affinity",
    "unit_descriptor": "fold",
    "recorded_result": 0.2
  },
  {
    "binder": "H183/L072 VL Q90N (antibody, name in Kabat numbering, V domains shown, Dual-Ig) VH: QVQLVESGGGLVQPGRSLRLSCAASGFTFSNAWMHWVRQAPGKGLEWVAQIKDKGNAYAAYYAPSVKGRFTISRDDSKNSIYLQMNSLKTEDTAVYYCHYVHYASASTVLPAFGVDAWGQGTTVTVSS VL: DIVMTQSPLSLPVTPGEPASISCQASQELVHMNRNTYLHWYQQKPGQAPRLLIYKVSNRFPGVPDRFSGSGSGTDFTLKISRVEAEDVGVYYCANGTSVPFTFGQGTKLEIK",
    "assay_metric": "fold change of affinity",
    "unit_descriptor": "fold",
    "recorded_result": 0
  },
  {
    "binder": "H183/L072 VL Y32A (antibody, name in Kabat numbering, V domains shown, Dual-Ig) VH: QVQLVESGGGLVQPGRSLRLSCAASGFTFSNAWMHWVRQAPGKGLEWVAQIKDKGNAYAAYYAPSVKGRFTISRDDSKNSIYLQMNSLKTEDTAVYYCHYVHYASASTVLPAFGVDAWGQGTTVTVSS VL: DIVMTQSPLSLPVTPGEPASISCQASQELVHMNRNTALHWYQQKPGQAPRLLIYKVSNRFPGVPDRFSGSGSGTDFTLKISRVEAEDVGVYYCAQGTSVPFTFGQGTKLEIK",
    "assay_metric": "fold change of affinity",
    "unit_descriptor": "fold",
    "recorded_result": 0.1
  },
  {
    "binder": "H183/L072 VL T97E (antibody, name in Kabat numbering, V domains shown, Dual-Ig) VH: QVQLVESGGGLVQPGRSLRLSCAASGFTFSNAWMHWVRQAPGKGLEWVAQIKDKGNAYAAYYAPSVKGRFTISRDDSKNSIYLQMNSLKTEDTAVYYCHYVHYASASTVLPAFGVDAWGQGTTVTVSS VL: DIVMTQSPLSLPVTPGEPASISCQASQELVHMNRNTYLHWYQQKPGQAPRLLIYKVSNRFPGVPDRFSGSGSGTDFTLKISRVEAEDVGVYYCAQGTSVPFEFGQGTKLEIK",
    "assay_metric": "fold change of affinity",
    "unit_descriptor": "fold",
    "recorded_result": 0.4
  },
  {
    "binder": "H183/L072 VL T97I (antibody, name in Kabat numbering, V domains shown, Dual-Ig) VH: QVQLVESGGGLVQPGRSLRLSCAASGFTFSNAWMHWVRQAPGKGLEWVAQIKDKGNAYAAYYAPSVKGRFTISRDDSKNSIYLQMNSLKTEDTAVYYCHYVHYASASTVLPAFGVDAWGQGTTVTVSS VL: DIVMTQSPLSLPVTPGEPASISCQASQELVHMNRNTYLHWYQQKPGQAPRLLIYKVSNRFPGVPDRFSGSGSGTDFTLKISRVEAEDVGVYYCAQGTSVPFIFGQGTKLEIK",
    "assay_metric": "fold change of affinity",
    "unit_descriptor": "fold",
    "recorded_result": 1.3
  },
  {
    "binder": "H183/L072 VL N30K (antibody, name in Kabat numbering, V domains shown, Dual-Ig) VH: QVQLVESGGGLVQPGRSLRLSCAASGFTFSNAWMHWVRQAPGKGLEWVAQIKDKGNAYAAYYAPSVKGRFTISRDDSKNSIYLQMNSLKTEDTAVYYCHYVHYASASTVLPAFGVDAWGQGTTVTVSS VL: DIVMTQSPLSLPVTPGEPASISCQASQELVHMNRKTYLHWYQQKPGQAPRLLIYKVSNRFPGVPDRFSGSGSGTDFTLKISRVEAEDVGVYYCAQGTSVPFTFGQGTKLEIK",
    "assay_metric": "fold change of affinity",
    "unit_descriptor": "fold",
    "recorded_result": 0.6
  },
  {
    "binder": "H183/L072 VL T97Q (antibody, name in Kabat numbering, V domains shown, Dual-Ig) VH: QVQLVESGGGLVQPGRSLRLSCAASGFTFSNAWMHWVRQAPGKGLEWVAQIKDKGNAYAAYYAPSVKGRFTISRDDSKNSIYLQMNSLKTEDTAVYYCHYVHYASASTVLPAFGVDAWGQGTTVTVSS VL: DIVMTQSPLSLPVTPGEPASISCQASQELVHMNRNTYLHWYQQKPGQAPRLLIYKVSNRFPGVPDRFSGSGSGTDFTLKISRVEAEDVGVYYCAQGTSVPFQFGQGTKLEIK",
    "assay_metric": "fold change of affinity",
    "unit_descriptor": "fold",
    "recorded_result": 0.7
  },
  {
    "binder": "H183/L072 VL A25G (antibody, name in Kabat numbering, V domains shown, Dual-Ig) VH: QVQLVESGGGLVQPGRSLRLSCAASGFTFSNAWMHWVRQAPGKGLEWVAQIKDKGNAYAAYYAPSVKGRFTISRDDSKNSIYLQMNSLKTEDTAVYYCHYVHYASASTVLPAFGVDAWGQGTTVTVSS VL: DIVMTQSPLSLPVTPGEPASISCQGSQELVHMNRNTYLHWYQQKPGQAPRLLIYKVSNRFPGVPDRFSGSGSGTDFTLKISRVEAEDVGVYYCAQGTSVPFTFGQGTKLEIK",
    "assay_metric": "fold change of affinity",
    "unit_descriptor": "fold",
    "recorded_result": 0.7
  },
  {
    "binder": "H183/L072 VL S93R (antibody, name in Kabat numbering, V domains shown, Dual-Ig) VH: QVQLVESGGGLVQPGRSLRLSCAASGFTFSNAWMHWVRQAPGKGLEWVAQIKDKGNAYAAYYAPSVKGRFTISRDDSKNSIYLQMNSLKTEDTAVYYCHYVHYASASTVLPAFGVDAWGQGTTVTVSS VL: DIVMTQSPLSLPVTPGEPASISCQASQELVHMNRNTYLHWYQQKPGQAPRLLIYKVSNRFPGVPDRFSGSGSGTDFTLKISRVEAEDVGVYYCAQGTRVPFTFGQGTKLEIK",
    "assay_metric": "fold change of affinity",
    "unit_descriptor": "fold",
    "recorded_result": 1
  }
]

Numbers sourced from patent US20210388087A1.
